Target: human Nav1.7 (Homo sapiens)
Sequence (Q15858 1-1977 isoform Q15858-3): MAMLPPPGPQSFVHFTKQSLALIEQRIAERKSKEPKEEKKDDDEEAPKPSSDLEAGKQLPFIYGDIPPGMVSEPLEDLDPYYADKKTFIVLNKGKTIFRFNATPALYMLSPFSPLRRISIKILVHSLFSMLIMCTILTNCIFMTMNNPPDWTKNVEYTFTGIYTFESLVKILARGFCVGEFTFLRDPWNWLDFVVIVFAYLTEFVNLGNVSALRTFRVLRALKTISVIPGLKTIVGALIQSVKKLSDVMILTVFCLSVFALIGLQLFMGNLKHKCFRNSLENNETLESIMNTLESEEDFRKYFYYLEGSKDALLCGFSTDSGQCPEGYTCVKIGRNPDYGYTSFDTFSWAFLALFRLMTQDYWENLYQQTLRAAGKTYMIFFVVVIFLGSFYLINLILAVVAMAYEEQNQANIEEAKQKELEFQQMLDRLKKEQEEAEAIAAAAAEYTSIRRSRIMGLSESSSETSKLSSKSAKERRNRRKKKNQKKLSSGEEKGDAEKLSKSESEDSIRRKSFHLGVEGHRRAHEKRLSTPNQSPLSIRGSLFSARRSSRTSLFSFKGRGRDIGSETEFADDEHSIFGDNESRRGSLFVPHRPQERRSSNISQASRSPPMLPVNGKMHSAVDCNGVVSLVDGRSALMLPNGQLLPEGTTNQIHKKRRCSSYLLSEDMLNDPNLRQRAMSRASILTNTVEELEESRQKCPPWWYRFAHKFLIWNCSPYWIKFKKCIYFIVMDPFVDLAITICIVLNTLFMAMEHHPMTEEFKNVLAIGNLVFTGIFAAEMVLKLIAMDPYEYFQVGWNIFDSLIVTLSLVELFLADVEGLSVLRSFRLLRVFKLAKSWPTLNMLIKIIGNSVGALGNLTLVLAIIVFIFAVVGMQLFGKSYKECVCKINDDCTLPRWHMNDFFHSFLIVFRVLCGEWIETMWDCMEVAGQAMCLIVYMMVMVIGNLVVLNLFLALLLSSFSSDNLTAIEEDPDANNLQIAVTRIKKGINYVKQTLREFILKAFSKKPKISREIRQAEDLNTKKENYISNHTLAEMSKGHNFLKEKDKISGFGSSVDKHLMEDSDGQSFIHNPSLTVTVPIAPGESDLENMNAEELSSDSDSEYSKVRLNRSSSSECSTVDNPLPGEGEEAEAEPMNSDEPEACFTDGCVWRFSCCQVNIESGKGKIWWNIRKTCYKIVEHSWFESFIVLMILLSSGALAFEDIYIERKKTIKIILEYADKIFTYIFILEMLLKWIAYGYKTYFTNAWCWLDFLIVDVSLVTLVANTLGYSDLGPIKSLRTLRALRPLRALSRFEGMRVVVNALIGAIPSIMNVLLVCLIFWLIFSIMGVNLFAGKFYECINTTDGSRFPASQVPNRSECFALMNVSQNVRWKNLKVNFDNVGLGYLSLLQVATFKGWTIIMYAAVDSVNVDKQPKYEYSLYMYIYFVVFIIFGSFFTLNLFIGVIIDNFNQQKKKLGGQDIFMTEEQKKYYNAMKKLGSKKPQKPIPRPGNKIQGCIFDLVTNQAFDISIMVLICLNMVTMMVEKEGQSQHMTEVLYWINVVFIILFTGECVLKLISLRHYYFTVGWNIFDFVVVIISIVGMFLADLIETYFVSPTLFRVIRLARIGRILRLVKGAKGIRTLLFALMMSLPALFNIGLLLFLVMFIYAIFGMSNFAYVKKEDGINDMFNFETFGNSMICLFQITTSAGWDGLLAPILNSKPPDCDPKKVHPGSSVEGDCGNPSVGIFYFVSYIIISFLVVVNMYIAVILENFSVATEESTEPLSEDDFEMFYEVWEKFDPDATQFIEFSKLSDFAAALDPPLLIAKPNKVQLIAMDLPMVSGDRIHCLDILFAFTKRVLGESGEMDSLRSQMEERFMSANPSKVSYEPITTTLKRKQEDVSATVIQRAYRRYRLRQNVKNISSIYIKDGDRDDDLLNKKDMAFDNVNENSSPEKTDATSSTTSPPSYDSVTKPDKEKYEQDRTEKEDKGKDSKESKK
Assay: FLIPR sodium dye assay (CoroNa Green AM Na+ dye, primary fluorescence assay) in recombinant Nav1.7/HEK293 cells
Type: cell-based
Conditions: Table 6; CoroNa Green AM Na+ dye primary fluorescence assay; read-out: Nav1.7 Activity (μM) FLIPR assay IC50
Decision: IC50 beneath 0.7 µM gives Satisfied; IC50 meeting or exceeding 0.7 µM gives Not satisfied.

MOLECULE | CATEGORY_LABEL
NC(=O)c1cc(N[C@H]2CCNC2=O)nc(-c2ccc(Nc3ccc(F)cc3)c(N)c2)n1 | Not satisfied
NC(=O)c1cc(N[C@H]2CCNC2=O)nc(-c2ccc(Oc3ccc(F)cc3)cc2CNC2CC2)n1 | Not satisfied
CC1CN1Cc1cc(Oc2ccc(F)cc2)ccc1-c1nc(N[C@H]2CCNC2=O)cc(C(N)=O)n1 (stereo partly drawn) | Not satisfied
NC(=O)c1cc(N[C@H]2CCNC2=O)nc(C2=C[C@H]3CC[C@@H](C2)N3Cc2ccc(F)cc2)n1 | Not satisfied
CN1CCC(Nc2cc(C(N)=O)nc(-c3ccc(Oc4ccc(F)cc4)cc3)n2)C1=O (stereo not drawn) | Satisfied
NC(=O)c1cc(OCCN2CCNC2=O)nc(-c2ccc(Oc3ccc(C(F)(F)F)cc3)cc2)n1 | Satisfied
NC(=O)c1cc(N[C@H]2CCNC2=O)nc(-c2ccc(C(O)c3ccc(C(F)(F)F)cn3)cc2)n1 (stereo partly drawn) | Not satisfied
Cn1ccnc1CNc1cc(C(N)=O)nc(-c2ccc(Oc3ccc(F)cc3)cc2)n1 | Satisfied
NC(=O)c1cc(N[C@H]2CCNC2=O)nc(-c2ccc(Oc3ccc(F)cc3)c(CN3CCCCC3)c2)n1 | Not satisfied
NC(=O)c1cc(N[C@H]2CCNC2=O)nc(N2C3CCC2CC(Oc2ccc(C(F)(F)F)cc2-c2ccncc2)C3)n1 (stereo partly drawn) | Satisfied
NC(=O)c1cc(N[C@H]2CCNC2=O)nc(N2C3CCC2CC(Oc2ccc(C(F)(F)F)cc2)C3)n1 (stereo partly drawn) | Not satisfied
NC(=O)c1cc(N[C@H]2CCNC2=O)nc(-c2ccc(Oc3ccc(Cl)cn3)cc2)n1 | Satisfied
NC(=O)c1cc(N[C@H]2CCNC2=O)nc(-c2ccc(Oc3ccc(F)cc3)cc2Cn2cncn2)n1 | Not satisfied
NC(=O)c1cc(N[C@H]2CCNC2=O)nc(-c2ccc(Oc3cnc(C(F)(F)F)cn3)cc2)n1 | Not satisfied
COc1cnc(Oc2ccc(-c3nc(N[C@@H](C)C(N)=O)cc(C(N)=O)n3)cc2)cn1 | Not satisfied
NC(=O)c1cc(N[C@H]2CCNC2=O)nc(N2C3CCC2CC(Oc2ccc(F)cc2)C3)n1 (stereo partly drawn) | Not satisfied
NC(=O)c1cc(O[C@H]2CCNC2=O)nc(-c2ccc(Oc3ccc(F)cc3)cc2)n1 | Satisfied
NC(=O)c1cc(N[C@H]2CCNC2=O)nc(-c2ccc(Oc3ccc(C(F)(F)F)c(C4=CCNCC4)c3)cc2)n1 | Not satisfied
C[C@H](Nc1cc(C(N)=O)nc(-c2ccc(Oc3ccc(C#N)cc3)cc2C(F)(F)F)n1)C(N)=O | Not satisfied
NC(=O)c1cc(N[C@H]2CCNC2=O)nc(-c2ccc(Cc3ccc(C(F)(F)F)cn3)cc2)n1 | Not satisfied
NC(=O)c1cc(N[C@H]2CCNC2=O)nc(-c2ccc(Oc3ccc(F)cc3)cc2CN2CCCCC2)n1 | Not satisfied
NC(=O)c1cc(N[C@H]2CCNC2=O)nc(-c2ccc(Oc3ccc(C(F)(F)F)cc3CN3CCOCC3)cc2)n1 | Not satisfied
NC(=O)c1cc(N[C@H]2CCNC2=O)nc(-c2ccc(Oc3ccc(C(F)(F)F)cc3CN3CCC3)cc2)n1 | Not satisfied
C[C@H](Nc1cc(C(N)=O)nc(-c2ccc(Oc3ccc(F)cc3)c(C(N)=O)c2)n1)C(N)=O | Not satisfied
NC(=O)c1cc(O[C@@H](CO)C(N)=O)nc(-c2ccc(Oc3ccc(C(F)(F)F)cc3)cc2)n1 | Not satisfied
NC(=O)c1cc(N[C@H]2CCNC2=O)nc(-c2ccc(C(=O)c3ccc(C(F)(F)F)cn3)cc2)n1 | Not satisfied
CC(C)N1CCN(c2cc(C(N)=O)nc(-c3ccc(Oc4ccc(F)cc4)cc3)n2)C(C(N)=O)C1 (stereo not drawn) | Satisfied
C[C@H](Nc1cc(C(N)=O)nc(-c2ccc(Oc3ccc(C(C)(C)C)cc3)cc2)n1)C(N)=O | Satisfied
NC(=O)c1cc(N[C@H]2CCNC2=O)nc(-c2ccc(Oc3ccc(C(F)(F)F)cc3)cc2CN2CCOCC2)n1 | Satisfied
